assay: qHTS to identify inhibitors of the type 1 interferon - major histocompatibility complex class I in skeletal muscle: tertiary screen by RT-qPCR; conditions: C25cl48 human myoblasts, IFN-beta, HLA-B RT-qPCR, 24 h; series mostly up to 49.8 µM
Description: […]
Records with an inconclusive call do not appear. The source made the active and inactive calls. Calls come from the whole dose curve; as a rule, active = well fitted inhibition curve with a large enough effect; inconclusive = small, poorly fitted or top-dose-only effect; inactive = no such curve, though single readings can be large or run the other way.

compound	Potency
CC(=O)c1cnc2ccc(-c3cc(Cl)c(O)c(Cl)c3)nc2c1NC1CCC(CN(C)C)CC1 (configuration not stated)	0.116 µM (active)
CC(=O)OCC(=O)[C@@]12OC(C)(C)O[C@@H]1C[C@H]1[C@@H]3C[C@H](F)C4=CC(=O)C=C[C@]4(C)[C@@]3(F)[C@@H](O)C[C@@]12C	inactive
C[C@]12C=CC(=O)C=C1CC[C@@H]1[C@@H]2[C@@H](O)C[C@@]2(C)[C@H]1CC[C@]2(O)C(=O)CO	inactive
CS[C@H]1SC[C@@H]2C(=O)N(C)[C@H](C(C)C)C(=O)OC[C@H](NC(=O)c3cnc4ccccc4n3)C(=O)N[C@H](C)C(=O)N(C)[C@H]1C(=O)N(C)[C@H](C(C)C)C(=O)OC[C@H](NC(=O)c1cnc3ccccc3n1)C(=O)N[C@H](C)C(=O)N2C	inactive
Cc1nc(Nc2n[nH]c3c2CN(C(=O)N[C@H](CN(C)C)c2ccccc2)C3(C)C)c2sccc2n1	1.84 µM (active)
NC(=O)Nc1sc(-c2ccc(F)cc2)cc1C(N)=O	10.4 µM (active)
N#CCC1(n2cc(-c3ncnc4[nH]ccc34)cn2)CN(C2CCN(C(=O)c3ccnc(C(F)(F)F)c3F)CC2)C1	3.68 µM (active)
CCS(=O)(=O)N1CCN(c2ccc(Nc3ncc(C(N)=O)c(NC4CC4)n3)cc2)CC1	5.83 µM (active)
CN1CCN(Cc2ccc(NC(=O)Nc3ccc(Oc4cc(NC(=O)C5CC5)ncn4)cc3)cc2C(F)(F)F)CC1	0.146 µM (active)
NC(=O)c1cnc2[nH]ccc2c1NC1C2CC3C[C@H]1CC(O)(C3)C2 (some centres not stated)	1.64 µM (active)
Cc1ccc(-c2ncn(-c3ccc(Nc4nccc(-c5cccc(N6CCOCC6)c5)n4)cc3)n2)cn1	1.46 µM (active)
Cc1ccc([N+](=O)[O-])cc1S(=O)(=O)N(C)/N=C/c1cnc2ccc(Br)cn12	0.232 µM (active)
COc1cccc2c1C(=O)c1c(O)c3c(c(O)c1C2=O)C[C@@](O)(C(=O)CO)C[C@@H]3O[C@H]1C[C@H](N)[C@H](O)[C@H](C)O1	1.04 µM (active)
O=C(Nc1nc2cccc(-c3ccc(CN4CCS(=O)(=O)CC4)cc3)n2n1)C1CC1	18.4 µM (active)
c1cc(Nc2cc(C3CC3)[nH]n2)nc(Nc2ccc3nc[nH]c3c2)n1	0.654 µM (active)
C[C@@]12O[C@@H](C[C@]1(O)CO)n1c3ccccc3c3c4c(c5c6ccccc6n2c5c31)CNC4=O	2.6 µM (active)
CCN(CC)Cc1ccc2cc(COC(=O)Nc3ccc(C(=O)NO)cc3)ccc2c1	4.13 µM (active)
